Data provenance: PubChem BioAssay (NCI)

system: SF-268 CNS; experiment: NCI-60 one-dose screen, 48 h; conditions: 10 µM unless noted
About 83,000 compounds went through this panel and 20% of them were active in at least one assay; those are over-represented in the sample as a whole. The source made the active and inactive calls. Rule for the calls: active = growth percent below 10; inactive = the rest.
Lab note: assign the record to one of active, inactive

COMPOUND	GROUP
O=CN1N=C(c2ccc(Cl)cc2)CC1c1cccc(Nc2ccnc3cc(Cl)ccc23)c1 (stereo not given)	inactive
O=C1/C=C/[C@@H](O)[C@@H]2C[C@@H](O)C[C@H]2/C=C/CCC[C@H](CO)O1	inactive
CCSc1nc(Nc2ccc(S(=O)(=O)Nc3ccon3)cc2)c(C#N)c(-c2cccc(Br)c2)n1	inactive
c1ccc(CN=C(NCc2ccccc2)NCc2ccccc2)cc1	inactive
CCOC(=O)CCC(=O)O[C@H]1[C@H](O[C@@H]2[C@@H](C)[C@H](O[C@H]3C[C@@](C)(OC)[C@@H](O)[C@H](C)O3)[C@@H](C)C(=O)O[C@H](CC)[C@@](C)(O)[C@H](O)[C@@H](C)C(=O)[C@H](C)C[C@@]2(C)O)O[C@H](C)C[C@@H]1N(C)C	inactive

(Q) Per the records of this test, what outcome belongs to CCOC(=O)CCN(c1c(Cl)ssc1=O)C(C)C ?
(A) inactive

(Q) Per the records of this test, what outcome belongs to CCCCCCCSc1ncnc2[nH]ncc12 ?
(A) inactive

(Q) Per the records of this test, what outcome belongs to COc1ccccc1NC(=O)c1sc2nc3c(cc2c1N)C(=O)CCC3 ?
(A) inactive

(Q) Per the records of this test, what outcome belongs to Cc1cc(C)cc(S(=O)(=O)n2ccc(-c3ccc4c(c3)CCC(C)(C)O4)n2)c1 ?
(A) inactive

(Q) Per the records of this test, what outcome belongs to COc1ccc(NS(=O)(=O)N2CCCCC2)cc1 ?
(A) inactive

(Q) Per the records of this test, what outcome belongs to CCCCCCCCCCNCCSS(=O)(=O)O ?
(A) active

(Q) Per the records of this test, what outcome belongs to Cc1nn(-c2nc3ccccc3s2)c(C)c1Oc1ccccc1O ?
(A) inactive

(Q) Per the records of this test, what outcome belongs to O=C(COc1cccc(/C=C2\Cc3ccccc3C2=O)c1)c1ccc(Cl)cc1 ?
(A) inactive

(Q) Per the records of this test, what outcome belongs to CN(C)c1ccc(-c2nc3ncc(Br)cc3o2)cc1 ?
(A) inactive

(Q) Per the records of this test, what outcome belongs to CN1CCC[C@@H]1CCO[C@](C)(c1ccccc1)c1ccc(Cl)cc1 ?
(A) inactive

(Q) Per the records of this test, what outcome belongs to O=C(Nc1ccccc1)P(=O)(O)c1ccccc1 ?
(A) inactive

(Q) Per the records of this test, what outcome belongs to Cc1sc2nc3c4ccccc4c(NCCCN(C)C)nn3c(=O)c2c1C ?
(A) inactive

(Q) Per the records of this test, what outcome belongs to Cc1cc2c(cc1C)[n+](Cc1ccc3ccccc3n1)cn2Cc1ccc2ccccc2n1 ?
(A) inactive

(Q) Per the records of this test, what outcome belongs to CC(C)=CCNc1ncnc2c1ncn2C1OC(COP(=O)(O)O)C(O)C1O (stereo not given) ?
(A) inactive

(Q) Per the records of this test, what outcome belongs to C[C@]12CC[C@H](O)CC1=CC[C@@H]1[C@@H]2CC[C@]2(C)C(c3cccnc3)=CC[C@@H]12 ?
(A) inactive

(Q) Per the records of this test, what outcome belongs to COc1ccc(/C=C2/SC(=Nc3c(C)nn(-c4ccccc4)c3N)NC2=O)cc1 ?
(A) inactive

(Q) Per the records of this test, what outcome belongs to O=c1[nH]c(SCc2ccccc2)nc2nc(Nc3ccc(NC(=S)Nc4ccccc4)cc3)nc(-c3ccc(O)cc3O)c12 ?
(A) inactive

(Q) Per the records of this test, what outcome belongs to O=C1CSC(c2ccccc2O)N1c1nnc(Cn2ccnc2)o1 (stereo not given) ?
(A) inactive

(Q) Per the records of this test, what outcome belongs to CC[C@@H](C)/C=C(C)/C=C/C(O)=C1\C(=O)N[C@@H](Cc2ccc(OC(=O)[C@@](OC)(c3ccccc3)C(F)(F)F)cc2)C1=O ?
(A) inactive

(Q) Per the records of this test, what outcome belongs to CCSCC1CC(O)(c2ccccc2)C(c2ccccc2)C(c2ccc(Cl)cc2)O1 (stereo not given) ?
(A) inactive

(Q) Per the records of this test, what outcome belongs to Cc1nn(-c2ccccc2)cc1/C=C1\SC(N2CCCCC2)=NC1=O ?
(A) inactive

* * *

system: DU-145 prostate; assay: NCI-60 one-dose screen, 48 h; settings: 10 µM unless noted
Compounds without any hit were thinned out: in the full panel of roughly 83,000, 20% have a hit. Activity calls are given as the source filed them. The calls were made as follows: active = growth percent below 10; inactive = the rest.
Lab note: assign the record to one of True for active, False for inactive

Below are worked cases with known answers.
MOLECULE	GROUP
COC(=O)C1(NC(=O)CNC(=O)OCc2ccccc2)CCCC1	False
COc1cnc2c(c1)C(=O)c1c-2n(CCCN2CCCC2)c(=O)c2cc(F)ccc12	True
COc1ccc(C2=NN(C(C)=O)C(c3c(C)nn(-c4ccccc4)c3N3CCOCC3)C2)cc1 (configuration not stated)	False
Cc1cn(C(C=O)OC(C=O)CO)c(=O)[nH]c1=O (configuration not stated)	False
ICCC(c1ccccc1)(c1ccccc1)c1ccccc1	False

(Q) Per the records of this test, what outcome belongs to CCSc1nc(Nc2ccc(S(=O)(=O)Nc3ccon3)cc2)c(C#N)c(-c2cccc(Br)c2)n1 ?
(A) False

* * *

test system: K-562 leukemia; assay: NCI-60 one-dose screen, 48 h; settings: 10 µM unless noted
Compounds without any hit were thinned out: in the full panel of roughly 83,000, 20% have a hit. The source made the active and inactive calls. The calls were made as follows: active = growth percent below 10; inactive = the rest.
Lab note: assign the record to one of active, inactive

(Q) Per the records of this test, what outcome belongs to O=C(c1ccccc1)C(CN1CCCCC1)c1ccccc1 (stereo not given) ?
(A) active

(Q) Per the records of this test, what outcome belongs to COc1ccc(C(=O)/C=C/c2ccc(C)cc2)cc1OC ?
(A) inactive

* * *

Catalogue of growth values
Tested on: KM12 colon
Experiment: NCI-60 one-dose screen, 48 h (100 = growth as untreated, 0 = no growth, -100 = all killed)
Details: 10 µM unless noted
Protocol: Growth inhibition of the KM12 human tumor cell line is measured as a screen for anti-cancer activity. Cells are grown in 96 well plates and exposed to the test compound for 48 hours. Compounds are tested at a single concentration, which is 10^-5 M for most compounds. The reported endpoint is percent growth (GI% or GIPRCNT), where numbers from 0 - 100% represent growth inhibition, and numbers from -100% - 0 represent cell death. For example, a value of 40 represents 60% growth inhibition. […]
About 83,000 compounds went through this panel and 20% of them were active in at least one assay; those are over-represented in the sample as a whole.
Enter your answer as a number in %; do not include the unit.

Completed entries (count: 3):
MOLECULE	TGT	READOUT_UNIT	growth
O=CN1N=C(c2ccc(Nc3ccnc4cc(Cl)ccc34)cc2)CC1c1ccc(Cl)cc1 (stereo not given)	KM12 colon	%	9.13
O=C(c1ccccc1)C(CN1CCCCC1)c1ccccc1 (stereo not given)	KM12 colon	%	14.4
Nc1ncnc2c1CN(Cc1ccccc1)CC2	KM12 colon	%	108

So for CN(C)c1ccc(-c2nc3ncc(Br)cc3o2)cc1 , the logged growth turned out to be 113

So for CCN(Cc1cccc(S(=O)(=O)[O-])c1)c1ccc(C(=C2C=CC(=[N+](CC)Cc3cccc(S(=O)(=O)O)c3)C=C2)c2ccccc2S(=O)(=O)O)cc1 , the logged growth turned out to be 94.4

* * *

system: SNB-19 CNS; experiment: NCI-60 one-dose screen, 48 h; settings: 10 µM unless noted
The panel holds about 83,000 compounds, 20% with a hit somewhere; the sample as a whole holds those more often. Calls of active or inactive are those of the source. Rule for the calls: active = growth percent below 10; inactive = the rest.
Lab note: assign the record to one of active, inactive

COMPOUND	TGT	GROUP
FC(F)(F)c1cc(-c2nnc3n2N=C(N2CCCC2)CS3)cc(C(F)(F)F)c1	SNB-19 CNS	inactive

(Q) Per the records of this test, what outcome belongs to COc1cc(-c2nc3nc4sc(C)c(C)c4c(=O)n3[nH]2)cc(OC)c1OC ?
(A) inactive

(Q) Per the records of this test, what outcome belongs to COc1cnc2c(c1)C(=O)c1c-2n(CCCNC(C)C)c(=O)c2cc(F)ccc12 ?
(A) inactive

* * *

test system: TK-10 renal; assay: NCI-60 one-dose screen, 48 h; details: 10 µM unless noted
About 83,000 compounds went through this panel and 20% of them were active in at least one assay; those are over-represented in the sample as a whole. Calls of active or inactive are those of the source. Rule for the calls: active = growth percent below 10; inactive = the rest.
Lab note: assign the record to one of true (1) (active), false (0) (inactive)

Below are worked cases with known answers.
COMPOUND	GROUP
Nc1nc(Nc2ccccc2SSc2ccccc2Nc2nc(N)nc(-c3ccc(I)cc3)n2)nc(-c2ccc(I)cc2)n1	false (0)
O=C(O)c1ccc2cccnc2c1O	false (0)
COC(=O)[C@H](Cc1cn(C)cn1)NC(=O)[C@H](Cc1ccccc1)NC(=O)Nc1cc(C(F)(F)F)cc(C(F)(F)F)c1	true (1)
CC(C)N(Cc1ccccc1)c1c(Cl)ssc1=O	false (0)
COc1ccc2c(c1)CC/C(=C\c1ccc(OCC(=O)Nc3nc4ccccc4s3)cc1)C2=O	false (0)
COC(=O)[C@H]1[C@H]2C[C@@H]3c4[nH]c5cc(OC)ccc5c4CCN3C[C@H]2C[C@@H](OC(=O)/C=C/c2cc(OC)c(OC)c(OC)c2)[C@@H]1OC	false (0)

Consider the additional compound presented here.
(Q) Per the records of this test, what outcome belongs to Nc1ccc2c(c1Br)Cc1ccccc1-2 ?
(A) false (0)
